Molecular target: T1, human high affinity trimeric IL-2 receptor (CD25/CD122/CD132) (human, UniProt P01589 22-272; P14784 27-551; P31785 23-369)
T1 sequence 1: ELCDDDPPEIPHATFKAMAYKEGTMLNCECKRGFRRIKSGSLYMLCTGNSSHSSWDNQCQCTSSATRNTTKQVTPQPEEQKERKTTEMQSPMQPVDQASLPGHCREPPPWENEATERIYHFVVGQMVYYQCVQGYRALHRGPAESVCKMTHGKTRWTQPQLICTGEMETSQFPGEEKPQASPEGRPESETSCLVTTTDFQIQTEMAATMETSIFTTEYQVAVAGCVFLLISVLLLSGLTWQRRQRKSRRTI
T1 sequence 2: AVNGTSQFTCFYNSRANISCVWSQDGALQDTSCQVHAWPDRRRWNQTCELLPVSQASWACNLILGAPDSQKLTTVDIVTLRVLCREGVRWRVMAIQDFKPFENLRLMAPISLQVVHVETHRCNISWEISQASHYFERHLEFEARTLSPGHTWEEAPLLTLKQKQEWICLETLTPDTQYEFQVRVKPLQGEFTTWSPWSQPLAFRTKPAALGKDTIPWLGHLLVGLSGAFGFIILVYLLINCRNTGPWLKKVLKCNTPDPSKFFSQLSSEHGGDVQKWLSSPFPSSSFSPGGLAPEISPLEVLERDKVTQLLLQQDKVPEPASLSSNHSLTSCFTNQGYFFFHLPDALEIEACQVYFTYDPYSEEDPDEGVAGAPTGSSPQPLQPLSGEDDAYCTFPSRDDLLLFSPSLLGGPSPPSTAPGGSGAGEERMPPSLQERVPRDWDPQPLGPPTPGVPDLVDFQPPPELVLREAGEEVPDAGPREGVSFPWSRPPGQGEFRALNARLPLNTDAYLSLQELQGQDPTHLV
T1 sequence 3: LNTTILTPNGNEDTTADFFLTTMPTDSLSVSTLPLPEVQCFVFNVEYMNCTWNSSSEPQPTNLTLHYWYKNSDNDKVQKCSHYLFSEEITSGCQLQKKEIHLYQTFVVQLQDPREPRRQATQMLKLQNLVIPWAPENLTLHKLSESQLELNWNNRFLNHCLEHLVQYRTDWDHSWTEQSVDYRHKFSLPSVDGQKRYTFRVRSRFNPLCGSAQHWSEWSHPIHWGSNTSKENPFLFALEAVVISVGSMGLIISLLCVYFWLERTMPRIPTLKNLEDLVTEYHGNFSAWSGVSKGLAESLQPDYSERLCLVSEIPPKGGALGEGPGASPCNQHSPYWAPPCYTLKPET
Test: cell-based or functional assay
MEASUREMENT_LABEL: pSTAT5 ratio YT CD25/YT, dilution factor 128, upper table

// worked examples, pSTAT5 ratio YT CD25/YT, dilution factor 128, upper table included
>  <BINDER>
VEH (ligand) cytokine: APTSSSTKKTQLQLEHLVLDLEMILNGINNYKNPKLTRMLTFKFYMPKKATELKHLQCLEEELKPLEEVLNLAQSKNFHLRPRDLISNINVIVLELKGSETTFMCEYADETATIVEFLNRWITFCHSIISTLT

>  <REPORTED>
14.8

$$$$
>  <BINDER>
GEH (ligand) cytokine: APTSSSTKKTQLQLEHLGLDLEMILNGINNYKNPKLTRMLTFKFYMPKKATELKHLQCLEEELKPLEEVLNLAQSKNFHLRPRDLISNINVIVLELKGSETTFMCEYADETATIVEFLNRWITFCHSIISTLT

>  <REPORTED>
18.8

$$$$

(A) SEH (ligand) cytokine: APTSSSTKKTQLQLEHLSLDLEMILNGINNYKNPKLTRMLTFKFYMPKKATELKHLQCLEEELKPLEEVLNLAQSKNFHLRPRDLISNINVIVLELKGSETTFMCEYADETATIVEFLNRWITFCHSIISTLT
(B) FEH (ligand) cytokine: APTSSSTKKTQLQLEHLFLDLEMILNGINNYKNPKLTRMLTFKFYMPKKATELKHLQCLEEELKPLEEVLNLAQSKNFHLRPRDLISNINVIVLELKGSETTFMCEYADETATIVEFLNRWITFCHSIISTLT
Lower pSTAT5 ratio YT CD25/YT, dilution factor 128, upper table: A or B ? Please identify the chosen entry by its label.
B
